test system: SNU16 cells; assay: Cell viability (CellTiter-Glo); type: cell-based, human; details: Extended Data Fig. 8; read-out: IC50 SNU16
QUANTITY NAME: IC50 (nM)

> print(dat)
                                 mol.smiles  assay.system  numeric.readout
1  O=c1[nH]c2ccc(Cl)cc2c(N[C@@H]2CN3CCC2CC3)c1-c1nc2ccccc2[nH]1   SNU16 cells              150

====

Biological target: Full-length human CHK1 protein (Homo sapiens, UniProt O14757)
Sequence (O14757 1-476): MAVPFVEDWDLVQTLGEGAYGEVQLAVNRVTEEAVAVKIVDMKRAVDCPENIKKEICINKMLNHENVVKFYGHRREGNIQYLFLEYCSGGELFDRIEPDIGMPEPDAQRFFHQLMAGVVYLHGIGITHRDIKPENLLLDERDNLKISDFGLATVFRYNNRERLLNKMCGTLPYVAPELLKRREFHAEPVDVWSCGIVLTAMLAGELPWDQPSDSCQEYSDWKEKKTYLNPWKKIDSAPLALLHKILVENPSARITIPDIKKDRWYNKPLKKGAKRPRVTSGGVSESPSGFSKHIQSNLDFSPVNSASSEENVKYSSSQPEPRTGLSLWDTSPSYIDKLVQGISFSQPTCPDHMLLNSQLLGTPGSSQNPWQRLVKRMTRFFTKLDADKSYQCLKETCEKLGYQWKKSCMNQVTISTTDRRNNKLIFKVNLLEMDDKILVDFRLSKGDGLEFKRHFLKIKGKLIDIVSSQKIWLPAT
pIC50: −log10 of the molar value.
QUANTITY NAME: pIC50

> print(dat)
                                   compound  numeric.readout
1  N[C@@H]1CCCN(c2c(Br)cnc3[nH]cc(NC(=O)C4CC4)c23)C1 [GDC-0575]             7.92
